# Target Desc: T1, Soluble recombinant human urokinase receptor (suPAR) (human, UniProt Q03405 23-299, limits assumed, biotinylated in the plate assays (sites not given))
# T1 construct: Only called a soluble truncated form of the urokinase receptor; also called soluble uPAR; biotinylated suPAR
# T1 sequence (Q03405 23-299 limits assumed): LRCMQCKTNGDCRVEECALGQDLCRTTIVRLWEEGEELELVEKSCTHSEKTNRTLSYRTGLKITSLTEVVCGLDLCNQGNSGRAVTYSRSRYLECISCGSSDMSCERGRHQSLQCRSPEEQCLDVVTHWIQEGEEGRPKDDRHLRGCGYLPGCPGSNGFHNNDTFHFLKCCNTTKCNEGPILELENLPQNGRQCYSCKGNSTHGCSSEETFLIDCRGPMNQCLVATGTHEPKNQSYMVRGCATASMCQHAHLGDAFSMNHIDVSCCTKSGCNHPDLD
# Test Details: competition with phage displaying peptide 9 for soluble uPAR
Square brackets hold non-standard residues; d marks the D form. Ends that are not written are not given here.
Recorded % Inhibition at 5 uM for the following binders
Report only the number, with the unit % understood.

AEFFKLGPNGYVYLHSA-NH2 (also called analogs 62-64) [Peptide 9 (synthetic peptide of clone 9)]    71

Looking up AEFFKLGPNGYVYL[dH]SA-NH2 (N-terminus assumed; SMILES CC(C)C[C@H](NC(=O)[C@H](CCCCN)NC(=O)[C@H](Cc1ccccc1)NC(=O)[C@H](Cc1ccccc1)NC(=O)[C@H](CCC(=O)O)NC(=O)[C@H](C)N)C(=O)NCC(=O)N1CCC[C@H]1C(=O)N[C@@H](CC(N)=O)C(=O)NCC(=O)N[C@@H](Cc1ccc(O)cc1)C(=O)N[C@H](C(=O)N[C@@H](Cc1ccc(O)cc1)C(=O)N[C@@H](CC(C)C)C(=O)N[C@H](Cc1c[nH]cn1)C(=O)N[C@@H](CO)C(=O)N[C@@H](C)C(N)=O)C(C)C) [Analog 94] , I see its % Inhibition at 5 uM listed as 41

Looking up AEFFKLG[dP]NGYVYLHSA-NH2 (N-terminus assumed; SMILES CC(C)C[C@H](NC(=O)[C@H](CCCCN)NC(=O)[C@H](Cc1ccccc1)NC(=O)[C@H](Cc1ccccc1)NC(=O)[C@H](CCC(=O)O)NC(=O)[C@H](C)N)C(=O)NCC(=O)N1CCC[C@@H]1C(=O)N[C@@H](CC(N)=O)C(=O)NCC(=O)N[C@@H](Cc1ccc(O)cc1)C(=O)N[C@H](C(=O)N[C@@H](Cc1ccc(O)cc1)C(=O)N[C@@H](CC(C)C)C(=O)N[C@@H](Cc1c[nH]cn1)C(=O)N[C@@H](CO)C(=O)N[C@@H](C)C(N)=O)C(C)C) [Analog 88] , I see its % Inhibition at 5 uM listed as 76

Reference source for all entries: patent US20040265797A1
